Tested on: human liver microsomes, compound remaining, LC-MS
test: human microsomal compound turnover – biochemical, with and without NADPH, LC-MS, set 2, ADME assay (AID 624452);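 also: compound left measured after 60 min microsomal incubation at 37 °C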
experimentalParameters: at 1 µM
# maps each entry to its percent remaining with NADPH
Give the number; % is assumed, so skip it.

molecule=N#C/C(=C\c1ccc([N+](=O)[O-])o1)c1nc2ccccc2[nH]1 units=% experimentalvalue=0.29
molecule=Cc1cc(C(=O)CN2C(=O)CCC2=O)c(C)n1Cc1ccccc1 units=% experimentalvalue=34.5
molecule="O=C1C2CC=CCC2C(=O)N1c1n[nH]c(-c2ccccc2)n1 (stereo unspecified)" units=% experimentalvalue=66.9
molecule=Cc1ccc(NC(=O)CCC(=O)N/N=C/c2ccc([N+](=O)[O-])o2)cc1C units=% experimentalvalue=37.5
molecule=Cc1ccc(C)c(NS(=O)(=O)c2cc(C(=O)Nc3ccccc3-c3ccccc3)ccc2Cl)c1 units=% experimentalvalue=2.07
molecule=O=C(c1ccccn1)N(Cc1cccs1)C1(C(=O)NC2CCCCC2)CCCCC1 units=% experimentalvalue=0.01
molecule=c1ccc(CC2CCN(c3ncnc4sccc34)CC2)cc1 units=% experimentalvalue=9.66
molecule=Brc1ccc2c(c1)CN1CCCC1=N2 units=% experimentalvalue=56.4

input: Reported percent remaining with NADPH, molecule CCOc1ccc(-c2nc(-c3ccncc3)no2)cc1OCC : ____
output: 25.1

input: What does the data say about its percent remaining with NADPH? Entry: O=C(CSc1cccc2cccnc12)N1CCCC1
output: 47.2

input: Could you tell me which percent remaining with NADPH is on file for Cc1cccc(-n2cnc3cc(C(=O)N4CCCCC4)ccc32)c1 ?
output: 37.9

----------
Test system: human liver microsomes, compound remaining, LC-MS
test: human microsomal compound turnover – biochemical, with and without NADPH, LC-MS, set 2, ADME assay (AID 624452);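 also: compound left measured after 60 min microsomal incubation at 37 °C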
experimentalParameters: at 1 µM
// returns FALSE unless percent remaining with NADPH is strictly below 7%, in which case TRUE

input: # check: percent remaining with NADPH < 7% for CCCn1ncc(CN2CCCC(C(=O)c3cccc(OC(C)C)c3)C2)c1C (stereo not drawn)
output: TRUE

input: percent remaining with NADPH strictly < 7% for this molecule? Cc1ccc(S(=O)(=O)NCc2ccc(C(=O)NCCN(Cc3ccccc3)C(C)C)cc2)cc1
output: TRUE

input: Does Cc1cc(-c2nnc3n2CCCCC3)c(C)n1-c1ccccc1 have percent remaining with NADPH strictly under 7%?
output: FALSE

input: Could you please tell me whether percent remaining with NADPH recorded for Brc1cc2c(cc1C1Nc3ccccc3C3C=CCC31)OCO2 (stereo not drawn) is less than 7%?
output: FALSE

input: For Cn1nnnc1Sc1ncnc2scc(-c3ccccc3)c12 , is the recorded percent remaining with NADPH below the cut-off of 7%?
output: FALSE

input: Record N#Cc1ccccc1CSc1nc2ncc(Br)cc2[nH]1 : is its percent remaining with NADPH strictly below 7%?
output: FALSE

input: Field: below-cutoff. Rule: recorded percent remaining with NADPH strictly less than 7%. Subject: CCCc1nc2c(=O)n(C)c(=O)nc-2n(C)n1
output: FALSE

input: Is it true that percent remaining with NADPH reported for COC(=O)c1ccccc1NC(=O)c1ccc(F)cc1 is less than 7%?
output: FALSE

input: Given the entry CN(C)C1=C(Cl)C(=O)N(c2ccc(Cl)c(Cl)c2)C1=O , would its reported percent remaining with NADPH be below 7%?
output: TRUE

input: For this molecule, is percent remaining with NADPH lower than 7%? COc1ccc(S(=O)(=O)N2CCN(S(=O)(=O)c3ccc4c(c3)OCCO4)CC2)cc1
output: TRUE

input: I wonder whether CCCN1CNc2c(c(=O)[nH]c(=S)n2CCc2ccc(OC)c(OC)c2)C1 has percent remaining with NADPH below 7%. Can you tell?
output: FALSE

input: Regarding CCCOc1ccc(-c2nc(OC)c3ccccc3n2)cc1 , kindly confirm whether its percent remaining with NADPH is beneath 7%.
output: FALSE

input: Lab note: percent remaining with NADPH threshold 7%. Does this molecule come in strictly under it? O=c1[nH]c(SCc2ccc(Cl)cc2)nc2c1CCC2
output: FALSE

input: Just wondering, is percent remaining with NADPH of CS(=O)(=O)c1ccc(C(=O)OCC(=O)NC23CC4CC(CC(C4)C2)C3)cc1[N+](=O)[O-] below 7%?
output: TRUE

input: Check if percent remaining with NADPH falls below 7% for CC1CCCN(C(C(=O)Nc2ccc3c(c2)OCCO3)c2ccccc2)C1 (stereo not drawn) .
output: TRUE

input: Given O=C(COc1ccccc1Br)NCCc1nc2ccccc2[nH]1 , is recorded percent remaining with NADPH strictly lower than 7%?
output: TRUE

input: Is the reported percent remaining with NADPH for Cc1ccc(NS(=O)(=O)c2ccc3c(c2)CCC(=O)N3)cc1C strictly below 7%?
output: TRUE

input: Item COc1ccc(OC)c(-c2nnc3n2N=C(c2ccc(OC)c(OC)c2)CS3)c1 : percent remaining with NADPH beneath 7%, strictly?
output: TRUE

----------
System: human liver microsomes, compound remaining, LC-MS
test: human microsomal compound turnover – biochemical, with and without NADPH, LC-MS, set 2, ADME assay (AID 624452);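 also: compound left measured after 60 min microsomal incubation at 37 °C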
experimentalParameters: at 1 µM
parameter: percent remaining with NADPH (%)
Quick note: give the figure in %, leave out the unit.

compound=O=[N+]([O-])c1ccc(CN2CCOCCOCCN(Cc3ccc([N+](=O)[O-])cc3)CCOCC2)cc1 subjectoftest="human liver microsomes, compound remaining, LC-MS" experimentalvalue=0.31
compound=COc1ccc(S(=O)(=O)n2nc(OC(=O)c3ccccc3)cc2N)cc1 subjectoftest="human liver microsomes, compound remaining, LC-MS" experimentalvalue=52.9
compound="CCOC(=O)C(C)Oc1cccc2c(=O)n(CC(=O)Nc3ccc4c(c3)OCCO4)ccc12 (stereo not given)" subjectoftest="human liver microsomes, compound remaining, LC-MS" experimentalvalue=68.7

input: Kindly state the measured percent remaining with NADPH obtained for CSc1nc(-c2ccc(C)cc2)nc(C(Cl)Cl)n1 with human liver microsomes, compound remaining, LC-MS.
output: 10.8

input: Any idea what percent remaining with NADPH came out for Oc1cc(O)cc(/C=C/c2ccc(O)c(O)c2)c1 on human liver microsomes, compound remaining, LC-MS?
output: 45.9

----------
Test system: human liver microsomes, compound remaining, LC-MS
test: human microsomal compound turnover – biochemical, with and without NADPH, LC-MS, set 2, ADME assay (AID 624452);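 also: compound left measured after 60 min microsomal incubation at 37 °C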
experimentalParameters: at 1 µM
parameter: percent remaining with NADPH (%)
I only need the number, in %, no unit after it.

Solved entries:
compound=CCCN(CCC)CCNC(=O)C1CCN(Cc2nc(-c3ccc(Cl)cc3)oc2C)CC1 parameter="percent remaining with NADPH" experimentalvalue=13.5
compound="Cc1ccc(S(=O)(=O)C(c2ccccc2)c2c(C)noc2C)cc1 (stereo not drawn)" parameter="percent remaining with NADPH" experimentalvalue=0.08
compound=c1ccc(-c2nnc(N3CCOCC3)nc2-c2ccccc2)cc1 parameter="percent remaining with NADPH" experimentalvalue=31.1
compound=Cc1ccc(N2CCN(S(=O)(=O)N3CCCCC3)CC2)c(C)c1 parameter="percent remaining with NADPH" experimentalvalue=0.03
compound=Cn1cnc([N+](=O)[O-])c1Sc1ncnc2nc[nH]c12 parameter="percent remaining with NADPH" experimentalvalue=66.6

input: percent remaining with NADPH for COc1ccc(CSc2nc(C)cc(=O)[nH]2)cc1 ?
output: 41.4

input: Which percent remaining with NADPH value belongs to Cc1cc(C)nc(-n2nc(C)c(Sc3ccc(F)cc3)c2N)n1 ?
output: 13.4

input: Requested read-out: percent remaining with NADPH. Entry: CN(C)c1nc(N)nc(CSc2nnnn2-c2cccc3ccccc23)n1
output: 0.13

input: Query (compound): O=C1NCCCc2c1oc1ccc(O)cc21 ; field requested: percent remaining with NADPH
output: 62.1

input: Suppose we examine the compound COc1ccc(OC)c(S(=O)(=O)Nc2cnc3ccccc3c2)c1 ; what percent remaining with NADPH value has been reported?
output: 25.9

input: What value of percent remaining with NADPH has been reported for the following compound? CC(=O)c1ccc(N2CCN(S(=O)(=O)c3ccc4c(c3)CC(=O)N4)CC2)cc1
output: 49

input: Recorded percent remaining with NADPH of O=S(=O)(NC1CCCCC1N1CCOCC1)c1ccc(Cl)cc1 (stereo not drawn) , please.
output: 0.11

input: What value of percent remaining with NADPH has been recorded for this entry: O=C(O)c1ccccc1OCc1ccccc1Br
output: 67.3

input: // query percent remaining with NADPH value for entry Cc1cc(C)n(-c2nc(NCCCO)c3c4c(sc3n2)CCCC4)n1
output: 0.45

input: Endpoint output: percent remaining with NADPH of c1ccc2c(Nc3nnc(-c4ccncc4)s3)cccc2c1 . Value?
output: 8.76

input: What percent remaining with NADPH value was documented for this compound, Cc1ccccc1N1CCN(c2ncnc3c2cnn3Cc2ccc(Cl)cc2)CC1 ?
output: 30.9

input: What percent remaining with NADPH value was documented for this compound, CCCc1cc(C(=O)N(C2CCCCC2)C2CCCCC2)no1 ?
output: 5.27

input: I'd like to know its percent remaining with NADPH. The compound in question is CCc1oc2ccccc2c1C(=O)c1cc(Br)c(O)c(Br)c1
output: 20.3
